Target desc: High affinity nerve growth factor receptor (Homo sapiens);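 note: each value is a mean of replicate percent inhibition readings against TRKA kinase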
Particulars: at 0.1 µM
Hi there, I'd appreciate the recorded inhibition for every entry that follows.
Give your result in % as a bare value.

Ask | Query: inhibition; subject: Cc1ccc(NC(=O)c2ccnc(N3CCCC3)c2)cc1-c1ccc(C(=O)NCC2CC2)cc1
Reply | 1.92

Ask | Query: inhibition; subject: COc1ccc(-c2ccncc2)cc1C(N)=O
Reply | 1.19

Ask | Query: inhibition; subject: COc1ccccc1Nc1ncc(-c2ccccc2)o1
Reply | 1.73

Ask | Query: inhibition; subject: NS(=O)(=O)c1cccc(-c2ccc3c(NC(=O)C4CC4)n[nH]c3c2)c1
Reply | 0.7

Ask | Query: inhibition; subject: Cc1ccc(C(=O)NC2CCCCC2)cc1-c1ccc(C(=O)NCC2CC2)cc1
Reply | 2.3

Ask | Query: inhibition; subject: CCCN1CCC(Oc2cc(Nc3nc(Nc4cccc(F)c4C(N)=O)c4cc[nH]c4n3)c(OC)cc2Cl)CC1
Reply | 2.22

Ask | Query: inhibition; subject: CNC(=O)c1cncc(/C=C/c2c(Cl)cccc2Cl)c1
Reply | 2.22

Ask | Query: inhibition; subject: CN(C)c1cc2c(Nc3ccc4nc(Cc5ccccc5)[nH]c4c3)ncnc2cn1
Reply | 4.28

Ask | Query: inhibition; subject: COc1cc2ncn(-c3cc(OCc4ccccc4Cl)c(C(N)=O)s3)c2cc1OC
Reply | 0.53

Ask | Query: inhibition; subject: CCn1c(-c2nonc2N)nc2c(C#CC(C)(C)O)nc(CN3CCCC3)cc21
Reply | -2.07

Ask | Query: inhibition; subject: CCN1CCC(CC(=O)Nc2n[nH]c3nc(-c4cccs4)c(Br)cc23)CC1
Reply | -0.5

Ask | Query: inhibition; subject: [O-][S+]1CCN(Cc2ccc(-c3ccc4ncnc(Nc5ccc(OCc6ccccc6)c(F)c5)c4c3)o2)CC1
Reply | 1.24

Ask | Query: inhibition; subject: COc1cc2c(cc1Nc1nc(N3CCc4ccccc43)c3cc[nH]c3n1)N(C(=O)CN(C)C)CC2
Reply | 0.79

Ask | Query: inhibition; subject: c1cnn2ncc(-c3ccnc(Nc4ccc5c(c4)OCCO5)n3)c2c1
Reply | 5.45

Ask | Query: inhibition; subject: CS(=O)(=O)CCNCc1ccc(-c2ccc3ncnc(Nc4ccc(OCc5cccc(F)c5)c(C(F)(F)F)c4)c3c2)o1
Reply | 1.7

Ask | Query: inhibition; subject: NCc1ccc(-c2nc(-c3ccc(Cl)c(O)c3)c(-c3ccncc3)[nH]2)cc1
Reply | -4.35

Ask | Query: inhibition; subject: O=C1NC(=O)C(c2ccc(Cl)cc2)=C1Nc1ccc(Cl)c(C(=O)O)c1
Reply | 0.44

Ask | Query: inhibition; subject: CS(=O)(=O)Nc1ccc(N/C=C2\C(=O)Nc3ccccc32)cc1
Reply | 5.97

Ask | Query: inhibition; subject: COc1cc2ncn(-c3cc(OCc4ccccc4C(F)(F)F)c(C(N)=O)s3)c2cc1OC
Reply | 2.57

Ask | Query: inhibition; subject: NC(=O)c1cccc(Nc2nccc(Nc3cccc4[nH]ncc34)n2)c1
Reply | 0.29

* * *

Target desc: Serine/threonine-protein kinase MARK1 (Homo sapiens) (UniProt Q9P0L2)
Sequence (Q9P0L2 whole entry, looked up): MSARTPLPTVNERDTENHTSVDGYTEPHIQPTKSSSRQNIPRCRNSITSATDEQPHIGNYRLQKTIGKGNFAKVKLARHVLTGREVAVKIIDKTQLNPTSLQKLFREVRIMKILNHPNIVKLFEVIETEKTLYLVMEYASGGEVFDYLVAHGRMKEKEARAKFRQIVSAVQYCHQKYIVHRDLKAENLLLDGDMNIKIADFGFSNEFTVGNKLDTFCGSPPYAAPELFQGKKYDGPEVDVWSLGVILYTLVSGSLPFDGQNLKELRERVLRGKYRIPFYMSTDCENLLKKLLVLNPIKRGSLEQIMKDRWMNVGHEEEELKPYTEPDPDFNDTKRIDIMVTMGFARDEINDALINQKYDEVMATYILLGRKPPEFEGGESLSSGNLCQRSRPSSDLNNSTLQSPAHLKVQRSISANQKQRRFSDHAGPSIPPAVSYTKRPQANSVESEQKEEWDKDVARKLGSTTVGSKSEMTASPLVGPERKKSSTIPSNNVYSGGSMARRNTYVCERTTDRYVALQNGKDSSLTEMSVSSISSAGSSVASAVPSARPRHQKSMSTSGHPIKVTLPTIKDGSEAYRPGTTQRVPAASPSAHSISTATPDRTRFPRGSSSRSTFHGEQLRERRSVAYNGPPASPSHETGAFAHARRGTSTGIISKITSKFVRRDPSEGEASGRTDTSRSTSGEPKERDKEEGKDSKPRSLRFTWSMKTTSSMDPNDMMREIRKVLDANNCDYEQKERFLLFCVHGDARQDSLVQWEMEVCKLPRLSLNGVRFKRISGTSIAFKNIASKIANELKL
Particulars: at 0.1 µM
Description: GSK_PKIS: MARK1 mean inhibition at 0.1 uM [Nanosyn]
Label rule, in plain words: inhibition of 1% and up is condition met, under 1% is condition not met.

Ask | Does CCn1c(-c2nonc2N)nc2ccncc21 have a reported inhibition of at least 1%?
Reply | condition not met

Ask | Does CS(=O)(=O)CCNCc1nc(-c2ccc3ncnc(Nc4ccc(F)c(Cl)c4)c3c2)cs1 have a reported inhibition of at least 1%?
Reply | condition met

Ask | Does CC1=C(C(=O)Nc2ccc3[nH]ncc3c2)C(c2ccc(Cl)c(Cl)c2)CC(=O)N1 (stereo not given) have a reported inhibition of at least 1%?
Reply | condition not met

Ask | Does CN1CCC(C(=O)Nc2n[nH]c3nnc(-c4ccccc4)cc23)CC1 have a reported inhibition of at least 1%?
Reply | condition met

Ask | Does CCCN1CCC=C(c2ccc(Nc3nc(Nc4ccccc4C(N)=O)c4cc[nH]c4n3)c(C)c2)C1 have a reported inhibition of at least 1%?
Reply | condition met

* * *

Target desc: Serine/threonine-protein kinase SIK2 (Homo sapiens);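 note: mean inhibition of SNF1LK2 (QIK) kinase activity, from the GSK PKIS screening panel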
Particulars: at 1 µM
Measured quantity: inhibition (%)
Give your result in % as a bare value.

Ask | Query: inhibition; subject: CCn1c(-c2nonc2N)nc2cncc(C(=O)N3CC[C@H](N)C3)c21
Reply | 10.1

Ask | Query: inhibition; subject: COc1cc2c(cc1Nc1nc(N3CCc4ccccc43)c3cc[nH]c3n1)N(C(=O)CN(C)C)CC2
Reply | -3.15

Ask | Query: inhibition; subject: CS(=O)(=O)CCNCc1nc(-c2ccc3ncnc(Nc4ccc(F)c(Cl)c4)c3c2)cs1
Reply | 2.57

Ask | Query: inhibition; subject: COc1cc2ncn(-c3cc(OCc4ccccc4C(F)(F)F)c(C(N)=O)s3)c2cc1OC
Reply | 35.4

Ask | Query: inhibition; subject: CC1=C(C(=O)Nc2ccc3[nH]ncc3c2)C(c2ccc3ccccc3c2)CC(=O)N1 (centres undefined)
Reply | 4.09

Ask | Query: inhibition; subject: COc1ccc(COc2ccc(Cc3cnc(N)nc3N)cc2OC)cc1
Reply | -1.07

Ask | Query: inhibition; subject: CCc1cccc(NC(=O)Nc2ccc(Oc3ccc4nc(NC(=O)OC)[nH]c4c3)cc2)c1
Reply | 0.48

Ask | Query: inhibition; subject: CC(=O)Nc1cccc(C#Cc2cncnc2Nc2ccc(OCc3cccc(F)c3)c(Cl)c2)n1
Reply | -0.46

Ask | Query: inhibition; subject: COc1cc2ncn(-c3cc(O[C@@H](C)c4ccccc4Cl)c(C(N)=O)s3)c2cc1OC
Reply | 12

* * *

Target desc: Fibroblast growth factor receptor 1 (Homo sapiens);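 note: values are the mean percent inhibition of FGFR1 across replicate measurements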
Particulars: at 1 µM
Measured quantity: inhibition (%)
Give your result in % as a bare value.

Ask | Query: inhibition; subject: CCn1c(-c2nonc2N)nc2ccncc21
Reply | -1.46

Ask | Query: inhibition; subject: COc1ccc(-c2coc3ncnc(N)c23)cc1
Reply | 9.2

Ask | Query: inhibition; subject: O=C1NC(=O)C(c2ccc(Cl)cc2)=C1Nc1ccc(Cl)c(C(=O)O)c1
Reply | 2.2

Ask | Query: inhibition; subject: COc1cc2c(cc1Nc1nc(N3CCc4ccccc43)c3cc[nH]c3n1)N(C(=O)CN(C)C)CC2
Reply | -1.36

Ask | Query: inhibition; subject: CCn1c(-c2nonc2N)nc2cncc(C(=O)N3CCNCC3)c21
Reply | 5.74

Ask | Query: inhibition; subject: c1cnn2ncc(-c3ccnc(Nc4ccc5c(c4)OCCO5)n3)c2c1
Reply | 5.22

Ask | Query: inhibition; subject: NCc1ccc(-c2nc(-c3ccc(Cl)c(O)c3)c(-c3ccncc3)[nH]2)cc1
Reply | 1.38

Ask | Query: inhibition; subject: Cc1ccc(NC(=O)c2ccnc(N3CCCC3)c2)cc1-c1ccc(C(=O)NCC2CC2)cc1
Reply | 2.19

Ask | Query: inhibition; subject: CC1=C(C(=O)Nc2ccc3[nH]ncc3c2)C(c2ccc(Cl)c(Cl)c2)CC(=O)N1 (stereo not given)
Reply | 8.25

Ask | Query: inhibition; subject: COc1cc2ncn(-c3cc(OCc4ccccc4C(F)(F)F)c(C(N)=O)s3)c2cc1OC
Reply | 13

* * *

Target desc: Protein kinase C theta type (Homo sapiens) (UniProt Q04759);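 note: each value is a mean inhibition of PKC-theta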
Sequence (Q04759 whole entry, looked up): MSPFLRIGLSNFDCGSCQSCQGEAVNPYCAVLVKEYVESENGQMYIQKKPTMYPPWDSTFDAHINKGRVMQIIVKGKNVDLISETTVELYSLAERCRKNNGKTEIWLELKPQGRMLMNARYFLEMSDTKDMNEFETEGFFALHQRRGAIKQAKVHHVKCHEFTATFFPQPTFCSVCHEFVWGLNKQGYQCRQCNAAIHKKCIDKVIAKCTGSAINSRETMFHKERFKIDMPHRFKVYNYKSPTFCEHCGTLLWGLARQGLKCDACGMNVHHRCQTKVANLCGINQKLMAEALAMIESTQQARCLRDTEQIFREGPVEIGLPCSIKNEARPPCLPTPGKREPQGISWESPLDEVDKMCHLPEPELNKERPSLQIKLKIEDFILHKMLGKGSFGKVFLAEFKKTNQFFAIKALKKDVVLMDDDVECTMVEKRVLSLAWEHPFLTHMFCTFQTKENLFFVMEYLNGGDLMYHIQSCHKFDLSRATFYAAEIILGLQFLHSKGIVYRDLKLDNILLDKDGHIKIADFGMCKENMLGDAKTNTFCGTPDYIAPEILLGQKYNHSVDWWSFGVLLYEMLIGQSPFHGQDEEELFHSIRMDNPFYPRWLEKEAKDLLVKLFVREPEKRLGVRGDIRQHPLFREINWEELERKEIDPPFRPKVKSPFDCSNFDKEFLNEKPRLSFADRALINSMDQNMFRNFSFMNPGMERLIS
Particulars: at 1 µM
Hi there, I'd appreciate the recorded inhibition for every entry that follows.
Give your result in % as a bare value.

Ask | Query: inhibition; subject: CS(=O)(=O)CCN(CC#N)Cc1ccc(-c2ccc3ncnc(Nc4ccc(OCc5cccc(F)c5)c(Cl)c4)c3c2)o1
Reply | 0.92

Ask | Query: inhibition; subject: N#Cc1c(NC(=O)c2cccc3ccccc23)sc2c1CCCC2
Reply | 0.74

Ask | Query: inhibition; subject: [O-][S+]1CCN(Cc2ccc(-c3ccc4ncnc(Nc5ccc(OCc6ccccc6)c(F)c5)c4c3)o2)CC1
Reply | -0.73

Ask | Query: inhibition; subject: O=C1NC(=O)C(c2ccccc2Cl)=C1Nc1cccc(O)c1
Reply | 3.85

Ask | Query: inhibition; subject: COc1ccc(-c2nn3ncccc3c2-c2ccnc(Nc3ccc(Cl)c(C(F)(F)F)c3)n2)cc1
Reply | 2.55

Ask | Query: inhibition; subject: NC(=O)c1ccc(-c2nc(-c3ccccn3)c(-c3ccc4c(c3)OCO4)[nH]2)cc1
Reply | 1.31

Ask | Query: inhibition; subject: NCc1ccc(-c2nc(-c3ccc(Cl)c(O)c3)c(-c3ccncc3)[nH]2)cc1
Reply | -0.18

Ask | Query: inhibition; subject: COc1ccc(COc2ccc(Cc3cnc(N)nc3N)cc2OC)cc1
Reply | -0.58

Ask | Query: inhibition; subject: CN1CCC(C(=O)Nc2n[nH]c3nnc(-c4ccccc4)cc23)CC1
Reply | 3.84

Ask | Query: inhibition; subject: NS(=O)(=O)c1ccc(N/N=C2\C(=O)Nc3ccc(C(=O)NCCc4c[nH]cn4)cc32)cc1
Reply | 3.63

Ask | Query: inhibition; subject: CCn1c(-c2nonc2N)nc2cncc(C(=O)N3CCNCC3)c21
Reply | 3.7

Ask | Query: inhibition; subject: CCCN1CCC=C(c2ccc(Nc3nc(Nc4ccccc4C(N)=O)c4cc[nH]c4n3)c(C)c2)C1
Reply | 3.28

Ask | Query: inhibition; subject: COc1cccc(-n2ncc3c(N/N=C/c4cccc(F)c4)ncnc32)c1
Reply | 2.23

Ref: ChEMBL document CHEMBL1961873
